Ki listing for selected molecules.
target: recombinant human 5-HT5A receptor (Homo sapiens); assay: [3H]LSD radioligand binding assay, recombinant human 5-HT5A receptor in HEK-EBNA cell membranes; settings: [3H]LSD approx. 1 nM; membranes from HEK-EBNA cells transiently expressing 5-HT5A; Ki from IC50 by Cheng-Prussoff equation
Give the number; nM is assumed, so skip it.

CCOc1cccc2c1N=C(NCC(F)F)NC2C (stereo not drawn) :: 14.1
CNC1=Nc2c(OC(C)C)cccc2C(C)N1 (stereo not drawn) :: 25.4
COc1cc(Cl)c(C)c2c1N=C(N)NC2C (stereo not drawn) :: 4.7
CNC1=Nc2c(OC3CCCC3)cccc2C(C)N1 (stereo not drawn) :: 16.2
CCOc1cccc2c1N=C(NC)NC2C (stereo not drawn) :: 34.5

Okay, next one:
Lookup: Ki / recombinant human 5-HT5A receptor (Homo sapiens) / CNC1=Nc2c(OC)cccc2C(C)N1 (stereo not drawn)
38.4

====

biological target: recombinant human 5-HT5A receptor (Homo sapiens, UniProt P47898); assay: [3H]LSD radioligand binding assay, recombinant human 5-HT5A receptor in HEK-EBNA cell membranes; details: [3H]LSD approx. 1 nM; membranes from HEK-EBNA cells transiently expressing 5-HT5A; Ki from IC50 by Cheng-Prussoff equation
Sequence (P47898 whole entry): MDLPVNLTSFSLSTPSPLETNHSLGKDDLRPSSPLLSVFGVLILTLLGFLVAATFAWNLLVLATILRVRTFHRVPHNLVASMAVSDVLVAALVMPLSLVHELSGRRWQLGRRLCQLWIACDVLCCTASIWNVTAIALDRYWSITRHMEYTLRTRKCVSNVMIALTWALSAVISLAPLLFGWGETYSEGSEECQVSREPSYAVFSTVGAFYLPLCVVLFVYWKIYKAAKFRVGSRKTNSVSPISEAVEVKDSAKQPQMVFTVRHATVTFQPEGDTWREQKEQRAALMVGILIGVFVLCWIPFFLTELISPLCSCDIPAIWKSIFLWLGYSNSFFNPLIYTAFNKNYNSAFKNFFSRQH
Quick rule for you: Ki under 20 nM gets class 1, anything else gets class 0.

Look over these answered cases.
CC(C)Oc1cccc2c1N=C(NCC(F)F)NC2C (centres unmarked) :: class 0
CNC1=Nc2c(OC)cc(Cl)c(C)c2C(C)N1 (centres unmarked) :: class 0
CC1NC(NCC(F)F)=Nc2c(OC3CCCC3)cccc21 (centres unmarked) :: class 0

Does the reported Ki of the following compound sit strictly below 20 nM? COc1cccc2c1N=C(N)NC2C (centres unmarked)
class 1

I'd appreciate it if you could check whether COc1cccc2c1N=C(NCC(F)F)NC2C (centres unmarked) has Ki smaller than 20 nM.
class 0

Threshold test, Ki < 20 nM: COc1cc(Cl)c(C)c2c1N=C(NC1CCC1)NC2C (centres unmarked)
class 0

Report whether reported Ki is lower than 20 nM (strictly) for CC(C)Oc1cccc2c1N=C(N)NC2C (centres unmarked)
class 1

Input CCOc1cccc2c1N=C(N)NC2C (centres unmarked) ; condition: Ki strictly below 20 nM. Does it hold?
class 0
